Target: T1, Anti-PSMA Fab
T1 construct: Biotinylated and captured on neutravidin coated plates in the phage ELISA; also called 006 PSMA Fab
Test: clonal phage ELISA on biotinylated PSMA Fab captured on neutravidin plate, anti-M13 HRP detection, blocking buffer alone
Where no end group is shown, it is not given here.
recorded_metric: Phage binding ELISA signal, Anti-PSMA Fab
Just the number.

Return Phage binding ELISA signal, Anti-PSMA Fab for the following binder: TVHYCTPSWMCTGF (cysteine pairing not given here; also: fused to pIII of bacteriophage, pIII and linker not given here, Peptide-180 library clone, tested as clonal phage supernatant with the peptide fused to pIII of the bacteriophage) [Phage-3498]
1.7

Return Phage binding ELISA signal, Anti-PSMA Fab for the following binder: EAPACVPVWMCNGF (cysteine pairing not given here; also: fused to pIII of bacteriophage, pIII and linker not given here, Peptide-180 library clone, tested as clonal phage supernatant with the peptide fused to pIII of the bacteriophage) [Phage-3503]
1.7

Return Phage binding ELISA signal, Anti-PSMA Fab for the following binder: QDMVCRPAWMCTGF (cysteine pairing not given here; also: fused to pIII of bacteriophage, pIII and linker not given here, Peptide-180 library clone, tested as clonal phage supernatant with the peptide fused to pIII of the bacteriophage) [Phage-3496]
1.7

Return Phage binding ELISA signal, Anti-PSMA Fab for the following binder: PLRYCEPAWMCFGF (cysteine pairing not given here; also: fused to pIII of bacteriophage, pIII and linker not given here, Peptide-180 library clone, tested as clonal phage supernatant with the peptide fused to pIII of the bacteriophage) [Phage-3501]
1.7

Return Phage binding ELISA signal, Anti-PSMA Fab for the following binder: SMAWCVPNWMCTGF (cysteine pairing not given here; also: fused to pIII of bacteriophage, pIII and linker not given here, Peptide-180 library clone, tested as clonal phage supernatant with the peptide fused to pIII of the bacteriophage) [Phage-3495]
1.7

Return Phage binding ELISA signal, Anti-PSMA Fab for the following binder: DILRCVPEWMCTGF (cysteine pairing not given here; also: fused to pIII of bacteriophage, pIII and linker not given here, Peptide-180 library clone, tested as clonal phage supernatant with the peptide fused to pIII of the bacteriophage) [Phage-3492]
1.71

Return Phage binding ELISA signal, Anti-PSMA Fab for the following binder: VNMICKPAWMCKGF (cysteine pairing not given here; also: fused to pIII of bacteriophage, pIII and linker not given here, Peptide-180 library clone, tested as clonal phage supernatant with the peptide fused to pIII of the bacteriophage) [Phage-3490]
1.71

Return Phage binding ELISA signal, Anti-PSMA Fab for the following binder: DYMMCSPDWMCKGF (cysteine pairing not given here; also: fused to pIII of bacteriophage, pIII and linker not given here, Peptide-180 library clone, tested as clonal phage supernatant with the peptide fused to pIII of the bacteriophage) [Phage-3494]
1.7

Return Phage binding ELISA signal, Anti-PSMA Fab for the following binder: YDHFCVPRWMCEGL (cysteine pairing not given here; also: fused to pIII of bacteriophage, pIII and linker not given here, Peptide-180 library clone, tested as clonal phage supernatant with the peptide fused to pIII of the bacteriophage) [Phage-3500]
1.7

Return Phage binding ELISA signal, Anti-PSMA Fab for the following binder: VDRICKPDWMCAGF (cysteine pairing not given here; also: fused to pIII of bacteriophage, pIII and linker not given here, Peptide-180 library clone, tested as clonal phage supernatant with the peptide fused to pIII of the bacteriophage) [Phage-3497]
1.7
